Procedure Summary: MRP1 drug-resistance reversers in H69AR cells – cell-based, doxorubicin co-treatment, pilot screen (AID 601)
Measurement Setup: H69AR cells + 2 uM doxorubicin, CellTiter-Glo, 72 h; at 10 µM; stronger effect = higher value
Active and inactive are the calls of the source.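 The calls were made as follows: active = viability loss from added drug above about 55%, and viability with drug at most 40%, in both replicates (limit read from the data, passing the limit was not always enough); inconclusive = both conditions met in only one replicate; inactive = neither replicate meets both conditions.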
Each entry below carries its recorded differential viability (reversal).

{"Molecule": "CCc1nnc(NC(=O)COC(=O)CN2C(=O)c3ccccc3C2=O)s1", "differential viability (reversal)": "7.39% (inactive)"}
{"Molecule": "O=C(CCCCCn1c(=O)[nH]c2ccsc2c1=O)N1CCCCC1", "differential viability (reversal)": "5.84% (inactive)"}
{"Molecule": "CCOc1ccc(NC(=O)CSc2nccn2C)cc1", "differential viability (reversal)": "6.7% (inactive)"}
{"Molecule": "CC(C)C(=O)Nc1ccc(-c2nc3cccnc3o2)cc1", "differential viability (reversal)": "-4.14% (inactive)"}

IN: Reported differential viability (reversal) for CC1CCCC(N2CCN(C(=O)c3ccc(F)cc3)CC2)C1 (stereo not drawn) : what is it?
OUT: 1.66% (inactive)

IN: Then this molecule: "CN(C1CCCCC1)S(=O)(=O)c1ccc(S(=O)(=O)N2CCN(CCC#N)CC2)cc1"
OUT: 27.9% (inactive)

IN: Then this molecule: CC1CCc2nn(CC(=O)NCc3ccc4c(c3)OCO4)cc2C1 (stereo not drawn)
OUT: 9.8% (inactive)

IN: Then this molecule: CCC(C)C(=O)Nc1nc2c(s1)C(=O)CC(C)(C)C2 (stereo not drawn)
OUT: 1.27% (inactive)

IN: Then this molecule: CC1(C)CC2CC(C)(CN2S(=O)(=O)c2ccc(N)cc2)C1 (stereo not drawn)
OUT: 8.43% (inactive)

###

Procedure Summary: S. cerevisiae growth inhibition in permissive medium (OD615), pilot counter-assay for S. cerevisiae lifespan shortening project, permissive growth control (AID 705)
Measurement Setup: OD615, 24 h, at 10 µM, stronger effect = higher value
Each entry below carries its recorded growth inhibition.
Answer in %, number only, no unit symbol.

{"Compound": "CCOC(=O)Nc1c(O)ccc2oc(C)c(-c3ccccc3)c12", "Scale Unit": "%", "Observed Measurement": -15.4}

IN: Reported growth inhibition for "Cc1noc(C)c1S(=O)(=O)NC1CCN(Cc2ccccc2)CC1" : what is it?
OUT: -12.1

IN: Then this compound: "O=C(c1ccc(CS(=O)(=O)c2ccc(Br)cc2)o1)N1CCN(C2CCCCC2)CC1"
OUT: 0.435

###

Procedure Summary: H69AR cell proliferation blockers – human, duplicate replicates, primary screen (AID 580);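 also: 100% = mean luminescence of untreated wells and 0% = no signal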
Measurement Setup: H69AR lung tumor cells viability, ATP luminescence, 72 h; at 10 µM; stronger effect = lower value
Assign labels as follows, please: 1 for viability below 90%; 0 for viability equal to or exceeding 90%.

Solved cases (2 shown):
{"Molecule": "COC(=O)c1nc2n(n1)C(c1ccc(OC)c(OC)c1)C(C(=O)OC1CCCCC1)=C(C)N2 (stereo unspecified)", "Answer Label": 1}
{"Molecule": "Cc1nnc(N(Cc2ccco2)C(=O)c2cccc(C#N)c2)s1", "Answer Label": 0}

IN: Lab log: compare recorded viability with 90%; is it strictly lower for "CC1(C)CC(=O)C(C=NCC2CCNCC2)=C(O)C1" ?
OUT: 0

IN: Then this molecule: "CCc1cc2c(NCCC(=O)O)ncnc2s1"
OUT: 0

###

Procedure Summary: HUVEC growth inhibition – cell-based, human, primary screen (AID 575);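 also: 100% = median of untreated cell wells with 0.1% DMSO on each plate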
Measurement Setup: HUVEC proliferation, CellTiter-Glo luminescence, 72 h; at 10 µM; stronger effect = lower value
Each entry below carries its recorded viability.
Answer in %, number only, no unit symbol.

Record excerpt, results attached:
{"Compound": "COc1ccc(-c2[nH]c(-c3cccc(OC)c3)nc2SCC(=O)NCc2ccco2)cc1", "Scale Unit": "%", "Observed Measurement": 62.5}
{"Compound": "COc1ccc(C2CC(c3ccc(Cl)cc3Cl)n3nc(N)nc3N2)cc1 (stereo not given)", "Scale Unit": "%", "Observed Measurement": 79.8}
{"Compound": "CC(=O)NC(CCS(C)(=O)=O)C(=O)Nc1cc(C)on1 (stereo not given)", "Scale Unit": "%", "Observed Measurement": 105}
{"Compound": "O=C(Cn1cc2c(n1)CCCC2)NCCc1ccccc1", "Scale Unit": "%", "Observed Measurement": 103}
{"Compound": "CCCCC(NS(=O)(=O)c1ccc(OC)cc1)C(=O)O (stereo not given)", "Scale Unit": "%", "Observed Measurement": 101}

IN: Reported viability for "CCOc1ccc(N(CC(=O)Nc2ccc(F)c(F)c2)S(=O)(=O)c2c(C)noc2C)cc1" : what is it?
OUT: 54

IN: Then this compound: "COc1ccc(-c2nn(-c3ccccc3)cc2/C=N/n2cnnc2)cc1OC"
OUT: 79.3

IN: Then this compound: "Cn1cccc1Cc1nnc(SCC(=O)NCc2ccc(F)cc2)n1-c1ccc(F)cc1"
OUT: 80.9

IN: Then this compound: "CCC(=O)Nc1cccc(Br)c1"
OUT: 113

IN: Then this compound: "Cc1ccc(N=Cc2ccc(O)cc2O)cc1F"
OUT: 69.3

IN: Then this compound: CCCCCOc1ccc(C2NC(=O)NC2=O)cc1 (stereo not given)
OUT: 102

IN: Then this compound: "O=c1[nH]c2ccc(Br)cc2c(-c2ccccc2)c1N1CCOCC1"
OUT: 60.1

###

Procedure Summary: S. cerevisiae growth inhibition in restrictive medium, OD615, pilot screen, restrictive growth control, yeast lifespan reduction project (AID 706);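 also: modified DeaD lifespan yeast strain shifted to restrictive glucose medium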
Measurement Setup: OD615, 48 h, at 10 µM
The source made the active and inactive calls.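 Rule for the calls: active = growth inhibition above a set limit, 3 SD over mean compound inhibition, in both replicates (cut at about 43% in these data); inconclusive = above the limit in only one replicate; inactive = at or below the limit in both replicates.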
Respond using exactly one of the listed classes: active, inactive

{"Compound": "CCOc1ccc(N=CC2=C(O)CC(C)(C)CC2=O)cc1", "Answer Label": "inactive"}
{"Compound": "CCC(C)NC(=O)C(NS(=O)(=O)c1ccc2c(c1)c(=O)n(C)c(=O)n2C)c1ccccc1 (stereo not given)", "Answer Label": "inactive"}
{"Compound": "Cc1noc(/C=C/N(C)C)c1S(=O)(=O)N1CCCC(C(=O)N2CCCCC2)C1 (stereo not given)", "Answer Label": "inactive"}
{"Compound": "COC(=O)C1=C(C)Nc2ncnn2C1c1ccc(C)o1 (stereo not given)", "Answer Label": "inactive"}

IN: Returns: the outcome recorded for CC1Cc2ccccc2N1C(=O)c1cnc2n(c1=O)CCS2 (stereo not given) in this assay.
OUT: inactive

IN: Then this compound: "O=C(c1cnccn1)N(c1ccccc1)C1(C(=O)NC2CCCC2)CCCCC1"
OUT: inactive

IN: Then this compound: COC(=O)C1C(=O)c2c([nH]c(C(=O)OC3CCCCCC3)c2C)CC1C (stereo not given)
OUT: inactive

IN: Then this compound: "Cn1cccc1Cc1nnc(SCC(=O)NCc2ccccc2)n1-c1ccc(F)cc1"
OUT: inactive

IN: Then this compound: CC(NC(=O)C1CCC(=O)N1Cc1ccc(F)cc1)c1ccc2c(c1)OCCO2 (stereo not given)
OUT: inactive

IN: Then this compound: "Cc1ccccc1-c1c(C)oc2cc(O)ccc2c1=O"
OUT: inactive

IN: Then this compound: OC(COCC1COc2ccccc2O1)CN1CCc2ccccc2C1 (stereo not given)
OUT: inactive

IN: Then this compound: "O=C(C1CC1)N1CCc2cc(Br)cc(S(=O)(=O)N3CCN(c4ccccn4)CC3)c21"
OUT: inactive

IN: Then this compound: "O=S(=O)(NC1CCCCC1)c1ccc(Br)cc1"
OUT: inactive

IN: Then this compound: "O=C1c2ccccc2C(=O)N1C/C=C/CN1C(=O)c2ccccc2C1=O"
OUT: inactive

IN: Then this compound: "COc1nc(Oc2ccc(=O)n(C)n2)nc(N(C)C)n1"
OUT: inactive

IN: Then this compound: COc1ccc(C(NC(=O)c2ccco2)c2ccc(OC)c(OC)c2)cc1 (stereo not given)
OUT: inactive

IN: Then this compound: "COc1cccc(C2=N/C(=C\N(C)C)C(=O)O2)c1"
OUT: inactive

IN: Then this compound: CCC1CCCCN1CCNS(=O)(=O)c1ccc2c(c1)oc(=O)n2C (stereo not given)
OUT: inactive

IN: Then this compound: "O=C(Nc1cccc2ccccc12)c1ccc(Br)o1"
OUT: inactive

IN: Then this compound: "CCCCSCc1[nH]c(=O)[nH]c1C(=O)CCCCC(=O)OCC"
OUT: inactive

IN: Then this compound: COc1ccccc1C1N(c2cc(Cl)ccc2OC)C(=O)C2CCCN21 (stereo not given)
OUT: inactive

IN: Then this compound: CC(NC(=O)c1noc2c1CCCCC2)c1ccccc1 (stereo not given)
OUT: inactive

IN: Then this compound: "O=C(Cc1cccs1)Nc1ccccc1NC(=O)Cc1cccs1"
OUT: inactive

IN: Then this compound: CCOc1ccc(NC(=O)C(C)Sc2nnc(C)n2C)cc1 (stereo not given)
OUT: inactive

###

Each entry below carries its recorded RAM network inhibition.
Procedure Summary: RAM signaling pathway blockade in yeast – S. cerevisiae, Pdr1DBD-CYC8 efflux-inhibited sensitized strain, primary screen (AID 1298);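 also: 0% = DMSO untreated cells without growth and 100% = 10 µM 1-NA-PP1 full growth; higher means more yeast growth rescued from 5-FOA killing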
Measurement Setup: S. cerevisiae cbk1-as DSE1-URA3 strain, 5-FOA growth OD615, 2 d; at 50 µM; stronger effect = higher value
Answer in %, number only, no unit symbol.

Record excerpt, results attached:
{"Compound": "Cc1noc(/C=C/N(C)C)c1S(=O)(=O)N1CCCC(C(=O)N2CCCCC2)C1 (stereo not given)", "RAM network inhibition (%)": 5.03}
{"Compound": "CCC(C)(C(=O)NC1CCCC1)N(CC1CCCO1)C(=O)CNC(=O)c1ccccc1 (stereo not given)", "RAM network inhibition (%)": 1.24}
{"Compound": "O=C(Nc1nc(-c2ccncc2)cs1)C1COc2ccccc2O1 (stereo not given)", "RAM network inhibition (%)": 7.12}
{"Compound": "Cn1c(=O)c2c(nc(CN3CCN(Cc4ccccc4)CC3)n2Cc2ccc(Cl)cc2)n(C)c1=O", "RAM network inhibition (%)": 2.33}
{"Compound": "O=C(Nc1ccc2snnc2c1)N1CCN(c2ccccc2)CC1", "RAM network inhibition (%)": 5.24}

IN: Reported RAM network inhibition for CC1CCCCN1CCNC(=O)c1ccc2c(=O)n(CCc3ccccc3)c(=O)[nH]c2c1 (stereo not given) : what is it?
OUT: 8.68

IN: Then this compound: "COc1ccc(-c2nc(-c3cccc(C(F)(F)F)c3)no2)cc1OC"
OUT: 7.48

IN: Then this compound: "CCCc1cc(=O)[nH]c(SCC(=O)NC2CCCCC2)n1"
OUT: 0.46

IN: Then this compound: "Cc1ccc(-c2cc(C(F)F)nc(N3CCC(C)CC3)n2)cc1"
OUT: 6.64

IN: Then this compound: "COC(=O)c1cn(NC(=O)c2cccnc2)c(=O)c2ccccc12"
OUT: 5.05

meta.source: PubChem BioAssay
